Assay: chemical genetic growth profiling, strain panel (AID 1159580);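 note: tested at 20 µM; growth read once vehicle control cultures reached saturation at 30 °C; 1 = growth at the plate median or of vehicle wells; lower values mean less growth of the strain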
Details: S. cerevisiae deletion strains, growth OD, locus YCL029C, strain bik1, stronger effect = lower value
In all, about 5,500 compounds went through this assay and about 2,000 (36%) were called active. About 18% were inconclusive and are not listed. This is one part of the list.
readout_name: normalized growth
// return a plain number; no unit text

Use the examples below as a reference point.
CC(C)(C)CC(C)(C)c1ccc(OCCOCC[N+](C)(C)Cc2ccccc2)cc1; 0.986
CNC1(C)C2CCC(C2)C1(C)C (centres undefined); 0.991
COc1ccc(C[C@H]2NC[C@H](O)[C@H]2OC(C)=O)cc1; 0.961
CCC1(c2ccc(N)cc2)CCC(=O)NC1=O (centres undefined); 1
CCC1(C)CC(=O)NC1=O (centres undefined); 1.02

**Query** Identify measured normalized growth associated with O=C(O)C1CC([C@@H]2CCCCN2)CN2CCCCC12 (some centres undefined)
**Result** 0.969

**Query** Please list normalized growth recorded for the compound O=c1ccc2cc(O)c(O)cc2o1
**Result** 0.989

**Query** Determine its reported normalized growth: CC[C@@H](CO)NCCN[C@@H](CC)CO
**Result** 1

**Query** Give normalized growth for C1CCc2nnnn2CC1
**Result** 1.03

The origin of these recorded values is PubChem BioAssay AID1159580.
